Record: Ki reported on Adenosine receptor A1 (Rattus norvegicus).
Sequence (P25099 whole entry): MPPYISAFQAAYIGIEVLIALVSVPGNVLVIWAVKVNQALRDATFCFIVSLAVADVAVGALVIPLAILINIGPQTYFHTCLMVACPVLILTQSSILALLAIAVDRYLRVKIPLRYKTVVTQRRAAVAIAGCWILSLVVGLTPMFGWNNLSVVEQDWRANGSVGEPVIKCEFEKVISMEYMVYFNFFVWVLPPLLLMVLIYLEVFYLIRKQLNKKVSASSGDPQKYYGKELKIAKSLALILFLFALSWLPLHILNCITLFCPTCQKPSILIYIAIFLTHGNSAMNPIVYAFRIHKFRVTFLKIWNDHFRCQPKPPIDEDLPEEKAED
reported-endpoint: Ki (nM)

Past entries and their recorded results:
COc1cc(OC)cc(C(CNc2ncnc3c2ncn3[C@@H]2O[C@H](CO)[C@@H](O)[C@H]2O)c2ccccc2C)c1 (some centres undefined)    103
CCCCC#Cc1nc(N)c2ncn([C@@H]3O[C@H](CO)[C@@H](O)[C@H]3O)c2n1    126

a: C[Si](C)(C)C#Cc1nc(N)c2ncn([C@@H]3O[C@H](CO)[C@@H](O)[C@H]3O)c2n1
b: COCC#Cc1nc(N)c2ncn([C@@H]3O[C@H](CO)[C@@H](O)[C@H]3O)c2n1
## Task Given a and b , report the one with the higher recorded Ki. State the label of the item chosen.
## Result a
(a: 69.8 nM, b: 38.1 nM)
